Test system: EKVX NSCLC
methodSummary: NCI tumour cell line growth inhibition, 48 h
readoutType: TGI

INSERT INTO assay_data (compound, readouttype, testresult) VALUES
  ('CC(C)=CCC/C(C)=C/CCC(C(=O)COCc1ccccc1)P1(=O)OC(C)(C)CN1C(C)(C)C (configuration not stated)', 'TGI', '> 100 µM'),
  ('S=c1sc2c(s1)SCc1cccc(n1)CSc1sc(=S)sc1SCc1cccc(n1)CS2', 'TGI', '> 100 µM'),
  ('CCn1c2ccccc2c2nnc(NCCCO)nc21', 'TGI', '> 100 µM'),
  ('O=C(Nn1cc(F)c(=O)[nH]c1=O)C12CC3CC(CC(C3)C1)C2', 'TGI', '> 89.1 µM'),
  ('O=C1/C(=N\O)C2CCC1C2 (configuration not stated)', 'TGI', '> 100 µM'),
  ('CC(C)Cc1ccc(C(C)C(=O)NCc2ccc(Cn3c(=O)sn(CCCCl)c3=O)cc2)cc1 (configuration not stated)', 'TGI', '2.78 µM'),
  ('CC1(c2ccccc2)N=C(C(N)=O)c2[nH]cnc2N1 (configuration not stated)', 'TGI', '> 100 µM');
